Recorded values, source ChEMBL document CHEMBL4513216.

Task for the reader: assign each of the following molecules its reported cytotoxicity at 10 µM.
# test.description: Toxicity liver stage against HepG2, at 10uM
# Assay type: cell-based
# Parameters: test concentration 10 uM, cell line HepG2-A16-CD81EGFP
# assay.setup: human, HepG2-A16-CD81EGFP cells; read-out: INHIBITION
Answers are plain numbers, in %.

> print(dat)
                                   molecule       observation.type  numeric.value
1  Cc1nnc(CNC(=O)C2CSCCC(=O)N2)o1 (stereo unspecified)  cytotoxicity at 10 µM          -10.1

For every listed record, write down its cytotoxicity at 10 µM.
1. CNC(=O)[C@@H]1C[C@@H](NC(=O)c2cn(C)nc2C)CN1Cc1sccc1C
2. OC(c1ccccc1)C1CCN(Cc2csc(-c3ncccn3)n2)CC1 (stereo unspecified)
3. Cc1cc(CNCc2c(C(C)C)nn(C)c2N2CCOCC2)no1
4. COCCOC(=O)N1CCC(c2nccn2CC2CC2)CC1

1. -5.58
2. -3.87
3. 16.5
4. -2.08

Looking for the measured cytotoxicity at 10 µM of Cc1cnn(CC2CN(Cc3nc4ccccc4o3)CCO2)c1 (stereo unspecified) , can you help?
-3.49

---

# test.description: Toxicity liver stage against HepG2, at 10uM
# Format: cell-based
# Design: test concentration 10 uM, cell line HepG2-A16-CD81EGFP
# assay.setup: human, HepG2-A16-CD81EGFP cells; read-out: INHIBITION
observation.type: cytotoxicity at 10 µM (%)
One number for each entry, in %.

Recorded cytotoxicity at 10 µM, per entry:
> print(dat)
                                   compound  numeric.value
1  Cc1cccc(CN2C[C@@H]3OCCN(S(=O)(=O)N(C)C)[C@@H]3C2)c1          -12.4
2  CC(NCCCC#N)c1ccc(S(C)(=O)=O)c(F)c1 (centres undefined)           6.96
3  Cc1ncsc1CN1CC[C@H]2OCC[C@@]2(C(=O)N(C)C)C1           2.93

Could you now look at the following compound, please?
Looking for the measured cytotoxicity at 10 µM of CCOc1cccc2c1OCC(=O)N(c1ccc(N(C)C)cc1)C2 , can you help?
4.28

---

# test.description: Toxicity liver stage against HepG2, at 10uM
# Assay type: cell-based
# Parameters: test concentration 10 uM, cell line HepG2-A16-CD81EGFP
# assay.setup: human, HepG2-A16-CD81EGFP cells; read-out: INHIBITION
Task for the reader: assign each of the following compounds its reported cytotoxicity at 10 µM.
Numbers only, in %.

Recorded cytotoxicity at 10 µM, per entry:
> print(dat)
                                   compound       observation.type  numeric.value
1          CCOCCN1CCC(C(=O)c2cc(F)ccc2F)CC1  cytotoxicity at 10 µM          -7.33
2  COCCN1CCC(CN(CC2CCCO2)C(=O)COC)CC1 (stereo unspecified)  cytotoxicity at 10 µM          -21.1
3  Cc1cc(C)n(CCN2CCN(C(=O)c3ccccc3Br)CC2)n1  cytotoxicity at 10 µM          -4.86
4  CC(NC(=O)NCCc1cnn(C)c1)c1ccc(Cl)s1 (stereo unspecified)  cytotoxicity at 10 µM          -2.47
5     CCN(CC)c1ccc(CNS(=O)(=O)C2CCOCC2)cc1F  cytotoxicity at 10 µM          -13.4
6     COCc1ccc(C(=O)N2CCCN(Cc3cscn3)CC2)cc1  cytotoxicity at 10 µM          -3.07
7        Cc1ccc(C(=O)Nc2ccn(CCC(N)=O)n2)cc1  cytotoxicity at 10 µM           2.42
8             CC(C)c1nc(CNc2ccc(CCO)cc2)cs1  cytotoxicity at 10 µM           20.1

For every listed record, write down its cytotoxicity at 10 µM.
1. Cc1nc(N2CCCC2)nc2c1CN(C(C)C)CC2
2. COc1ccc(CN2CCC3(CC(=O)N(c4cncnc4)C3)C2)cc1 (stereo unspecified)
3. CCc1nc(C2CCCN2CCC(=O)N2CCc3ccccc32)no1 (stereo unspecified)
4. Cc1cccc(NC(=O)N2CCN(Cc3noc(C4CC4)n3)CC2)c1
5. CC(C)NC(=O)CCC(=O)N1CCC(c2noc3cc(F)ccc23)CC1
6. COCCn1c2c(ccc1=O)CCN(C(=O)CC1CC1)CC2
7. CC(C)Oc1ccccc1C(=O)NC1CC(=O)N(CC(F)(F)F)C1 (stereo unspecified)

[-6.85, 4.53, -23.7, -10.1, 2.13, 2.24, 4.37]

Looking for the measured cytotoxicity at 10 µM of CN(c1cccnn1)C1CCN(C(=O)c2ccc3c(c2)COC3)CC1 , can you help?
-12
